Just for reference, paper PMC5349447 is where these values come from.

# measured_target: T1, La-RRM1+2 (human, UniProt P05455 111-348)
# T1 sequence: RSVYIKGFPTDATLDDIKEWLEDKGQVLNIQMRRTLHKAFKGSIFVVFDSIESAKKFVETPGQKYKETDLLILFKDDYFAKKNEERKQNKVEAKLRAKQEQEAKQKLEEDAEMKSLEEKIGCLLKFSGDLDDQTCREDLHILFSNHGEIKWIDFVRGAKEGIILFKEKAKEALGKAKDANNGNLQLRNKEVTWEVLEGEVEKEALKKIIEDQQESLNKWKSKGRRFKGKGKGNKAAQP
# procedure_details: EMSA; EMSA: about 20 mM Tris-HCl pH 7.4, 150 mM NaCl, 3 mM MgCl2, 0.5 mM EDTA, IGEPAL, glycerol, 50 nM RNA, RT 10 min (with compounds: 18 mM Tris, 135 mM NaCl, 2.7 mM MgCl2, 0.45 mM EDTA, 0.025% IGEPAL, 2% glycerol, 10% DMSO); FP: 20 mM Tris-HCl pH 7.5, 3 mM MgCl2, 0.5 mM EDTA, 150 mM NaCl, 0.05% IGEPAL, 100 ug/ml BGG, RT 15 min
# measurement_setup: protein: recombinant; tags: His; hairpin (mfold prediction)
observation_type: pKd
Just the number, please; pKd means minus log10 of the concentration in mol/L.

What value of pKd has been reported for the following binder? GCUGCCCAGGAAGAGCCCCAGCCAUGGAACACCAGCUCCUGUGCUGC (structured_RNA) [fD1] 7.09
